- measured-target: Human CB2R (Cannabinoid receptor 2) (Homo sapiens (Human), UniProt P34972)
- Sequence (P34972 whole entry): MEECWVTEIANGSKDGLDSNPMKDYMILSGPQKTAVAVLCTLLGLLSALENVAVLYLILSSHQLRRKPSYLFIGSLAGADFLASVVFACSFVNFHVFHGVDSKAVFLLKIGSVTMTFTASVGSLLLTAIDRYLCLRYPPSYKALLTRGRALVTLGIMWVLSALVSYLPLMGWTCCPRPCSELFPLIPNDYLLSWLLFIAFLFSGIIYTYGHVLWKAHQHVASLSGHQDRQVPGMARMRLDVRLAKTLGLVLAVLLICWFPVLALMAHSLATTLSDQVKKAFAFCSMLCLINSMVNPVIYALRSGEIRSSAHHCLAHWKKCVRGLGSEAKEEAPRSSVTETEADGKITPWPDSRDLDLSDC
- protocol-description: CB-2 in vitro cAMP assay (HTRF), inverse agonism
- assay-conditions: mean where tested more than once
pEC50: −log10 of the molar value. Structures can show the parent of a compound that is named as a salt.
pEC50 overview

# annotated cases, reported pEC50 shown
COc1ccc(C(c2ccc(Cl)cc2)c2ccc3[nH]c(=O)cc(NC4CCN(S(=O)(=O)C(F)(F)F)CC4)c3c2)cc1 (centres unmarked) [Compound #54] | 5.74
CC(C)S(=O)(=O)N1CCC(Nc2cc(=O)[nH]c3ccc(C(c4ccc(Cl)cc4)c4nccs4)cc23)CC1 (centres unmarked) [Compound 40] | < 5.00
CCCCNc1cc(C(c2ccc(Cl)cc2)c2ccc(Cl)cc2)cc2c(NC3CCN(S(=O)(=O)C(F)(F)F)CC3)cc(=O)n(C)c12 [Compound 139] | < 5.00

pEC50 reported for this compound O=C(O)c1ccc(S(=O)(=O)N2CCC(Nc3cc(=O)[nH]c4ccc(C(c5ccc(Cl)cc5)c5ccc(Cl)cc5)cc34)CC2)s1 [Compound 130, trifluoroacetic acid salt] : 6.16

Given item O=c1cc(Nc2ccc(-c3ccccc3)cc2)c2cc(C(c3ccc(Cl)cc3)c3ccc(Cl)cc3)ccc2[nH]1 [Compound 133] , the value recorded as its pEC50 is < 5.00

Per the records, this compound ( NCCCCNc1cc(C(c2ccc(Cl)cc2)c2ccc(Cl)cc2)cc2c(NC3CCN(S(=O)(=O)C(F)(F)F)CC3)cc(=O)[nH]c12 [Compound 141] ) has pEC50 equal to < 5.00

Lookup result for O=C(c1ccc(Nc2cc(=O)[nH]c3ccc(C(c4ccc(Cl)cc4)c4ccc(Cl)cc4)cc23)cc1F)N1CCCC1 [Compound 138] ; measured pEC50: 6.12

pEC50 reported for this compound COc1ccc(C(O)(c2ccc3nccc(/C=C/c4ccccc4)c3c2)c2nccs2)cc1 (centres unmarked) [Compound 504] : < 5.00

Reported pEC50 of COC/C=C/c1cc(C(c2ccc(Cl)cc2)c2ccc(Cl)cc2)cc2c(NC3CCN(S(=O)(=O)C(F)(F)F)CC3)cc(OC)nc12 [Compound 547] : < 4.38

Value of pEC50 reported for the compound O=C(O)c1cccc(S(=O)(=O)N2CCC(Nc3cc(=O)[nH]c4ccc(C(c5ccc(Cl)cc5)c5ccc(Cl)cc5)cc34)CC2)c1 [Compound 84] is 5.05

# pEC50 of COC(=O)c1ccc(Nc2cc(=O)[nH]c3ccc(C(c4ccc(Cl)cc4)c4ccc(Cl)cc4)cc23)cc1 [Compound 85] = < 5.00

Reported pEC50 for O=C(O)CCCCCOc1cc(NC2CCN(S(=O)(=O)C(F)(F)F)CC2)c2cc(C(c3ccc(Cl)cc3)c3ccc(Cl)cc3)ccc2n1 [Compound 535] was 7.22

The reported pEC50 of the compound O=c1cc(CCc2cccc(Cl)c2)c2cc(C(O)(c3ccc(Cl)cc3)c3nccs3)ccc2[nH]1 (centres unmarked) [Compound 8] was < 5.00

Clc1ccc(C(c2ccc3nccc(/C=C/c4ccccc4)c3c2)c2nccs2)cc1 (centres unmarked) [Compound 511] yielded pEC50 of < 5.00

* * *

- measured-target: Human CB1R (Cannabinoid receptor 1) (Homo sapiens (Human))
- Sequence (P21554 whole entry): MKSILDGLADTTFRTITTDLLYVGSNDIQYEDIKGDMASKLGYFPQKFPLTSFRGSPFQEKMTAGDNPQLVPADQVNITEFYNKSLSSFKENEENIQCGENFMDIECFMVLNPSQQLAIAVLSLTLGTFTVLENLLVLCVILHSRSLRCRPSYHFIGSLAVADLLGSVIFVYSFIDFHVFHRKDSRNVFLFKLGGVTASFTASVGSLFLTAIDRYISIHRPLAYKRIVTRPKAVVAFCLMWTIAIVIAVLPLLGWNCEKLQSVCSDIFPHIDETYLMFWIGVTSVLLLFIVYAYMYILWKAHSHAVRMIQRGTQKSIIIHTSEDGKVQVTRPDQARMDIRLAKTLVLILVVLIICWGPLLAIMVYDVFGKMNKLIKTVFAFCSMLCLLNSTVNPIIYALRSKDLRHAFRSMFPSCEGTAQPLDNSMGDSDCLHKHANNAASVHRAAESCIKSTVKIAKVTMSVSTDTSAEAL
- protocol-description: CB-1 in vitro cAMP assay (HTRF), inverse agonism
- assay-conditions: mean where tested more than once
pEC50: −log10 of the molar value.
assay-metric: pEC50

[a] Cn1c(=O)cc(CCc2cccc(Cl)c2)c2cc(C(c3ccc(Cl)cc3)c3nccs3)ccc21 (centres unmarked)
[b] O=c1cc(NC2CCN(S(=O)(=O)C(F)(F)F)CC2)c2cc(C(c3ccc(O)cc3)c3ccc(Cl)cc3)ccc2[nH]1 (centres unmarked)
[c] O=c1cc(/C=C/c2ccccc2)c2cc(C(c3ccc(Cl)cc3)c3cccs3)ccc2[nH]1 (centres unmarked)
[d] COCCCc1cc(C(c2ccc(Cl)cc2)c2ccc(Cl)cc2)cc2c(NC3CCN(S(=O)(=O)C(F)(F)F)CC3)cc(OC)nc12
[e] Clc1ccc(C(c2ccc3nccc(/C=C/c4ccccc4)c3c2)c2cccs2)cc1 (centres unmarked)
Exercise: Task for the reader: place the molecules above in descending order according to recorded pEC50. Return value: ordered labels per request.
Key: b, d, a, e, c

[I] O=c1cc(NCc2ccc(C(F)(F)F)cn2)c2cc(C(c3ccc(Cl)cc3)c3ccc(Cl)cc3)ccc2[nH]1
[II] OC(c1ccc(Cl)cc1)(c1ccsc1)c1ccc2nccc(/C=C/c3ccccc3)c2c1 (centres unmarked)
Exercise: Field: lower pEC50 | Options: I / II Record your answer as the label of the chosen record.
Key: II
(II: 5.26, I: 6.77)

* * *

- measured-target: Human CB1R (Cannabinoid receptor 1) (Homo sapiens (Human))
- protocol-description: CB-1 in vitro cAMP assay (HTRF), inverse agonism
- assay-conditions: mean where tested more than once
Counter-ions that a name gives are not always drawn.
assay-metric: EC50 (nM)

O=C(O)COc1cc(NC2CCN(S(=O)(=O)C(F)(F)F)CC2)c2cc(C(c3ccc(Cl)cc3)c3ccc(Cl)cc3)ccc2n1 [Compound 532] | 1280
O=C(O)CCCNc1cc(C(c2ccc(Cl)cc2)c2ccc(Cl)cc2)cc2c(NC3CCN(S(=O)(=O)C(F)(F)F)CC3)cc(=O)[nH]c12 [Compound 108] | 310
COC(=O)c1ccc(C(=O)N2CCC(Nc3cc(=O)[nH]c4ccc(C(c5ccc(Cl)cc5)c5ccc(Cl)cc5)cc34)CC2)cc1 [Compound 113] | 25
NC(=O)CCCOc1ccc(Nc2cc(=O)[nH]c3ccc(C(c4ccc(Cl)cc4)c4ccc(Cl)cc4)cc23)cc1 [Compound 123] | 219

[I] O=c1cc(/C=C/c2cccc(F)c2)c2cc(C(c3ccc(Cl)cc3)c3ccc(Cl)cc3)ccc2[nH]1 [Compound 15]
[II] CC(=O)NCCCCOc1cc(C(c2ccc(Cl)cc2)c2ccc(Cl)cc2)cc2c(NC3CCN(S(=O)(=O)C(F)(F)F)CC3)ccnc12 [Compound 543, trifluoroacetic acid salt]
[III] O=C1CCCN1c1cc(C(c2ccc(Cl)cc2)c2ccc(Cl)cc2)cc2c(NC3CCN(S(=O)(=O)C(F)(F)F)CC3)cc(=O)[nH]c12 [Compound 107]
[IV] COCCn1c(=O)cc(NC2CCN(S(=O)(=O)C(F)(F)F)CC2)c2cc(C(c3ccc(Cl)cc3)c3ccc(Cl)cc3)ccc21 [Compound 110]
Exercise: Rank entries according to their EC50, from the largest number down. Answer format: the labels, in the requested order.
Key: I, IV, II, III

[P] O=c1cc(C2=CCN(S(=O)(=O)C(F)(F)F)CC2)c2cc(C(c3ccc(Cl)cc3)c3ccc(Cl)cc3)ccc2[nH]1 [Compound 17]
[Q] O=c1cc(NC2CCN(S(=O)(=O)C(F)(F)F)CC2)c2cc(C(c3ccc(Cl)cc3)c3nc4ccccc4s3)ccc2[nH]1 (stereo not shown) [Compound 65]
[R] O=c1cc(/C=C/c2ccc(C(F)(F)F)cc2)c2cc(C(c3ccccc3)c3ccc(Cl)cc3)ccc2[nH]1 (stereo not shown) [Compound 33]
Exercise: Order each entry by recorded EC50, climbing from the minimum. Rank them, then answer with their labels in that order.
Key: Q, P, R

* * *

- protocol-description: Chronic DIO Mouse, second study: plasma and brain concentrations
- Format: in vivo
- assay-conditions: male, mouse, brain, oral, 10 mg/kg, DIO mice, 10 mg/kg, Day 23, 2 hours post dose; read-out: Brain concentration (Std Dev)
- Experimental: Male 14-20-week old diet-induced obese mice were ordered from Taconic. Mice were started on a 60% fat diet (D12492, Research Diets, New Brunswick, N.J.) at 6 weeks of age. Mice were single-housed. Test compounds were formulated in 10% PEG400 and 10% solutol. Test compounds were administered by oral gavage (5 ml kg^−1). The test compound was formulated in 10% PEG400 and 10% solutol. […] At the end of the experiment, the mice were euthanized and blood and tissues were collected. […]
assay-metric: concentration at 2 h (ng/g)
Quick reminder: number only, in ng/g, skip the unit.

The molecule O=c1cc(NC2CCN(S(=O)(=O)C(F)(F)F)CC2)c2cc(C(c3ccc(Cl)cc3)c3ccc(Cl)cc3)ccc2[nH]1 showed concentration at 2 h equal to 201

* * *

- measured-target: Human CB2R (Cannabinoid receptor 2) (Homo sapiens (Human), UniProt P34972)
- protocol-description: CB-2 in vitro cAMP assay (HTRF), inverse agonism
- assay-conditions: mean where tested more than once
Where a name gives a salt, the structure may show the parent alone.
assay-metric: EC50

Would you please look over these solved cases?
CC(C)(C)OC(=O)N1CC=C(c2ccnc3ccc(C(c4ccc(Cl)cc4)c4nccs4)cc23)CC1 (stereo not shown) [Compound 513] | > 10 µM
CC(C)(C)OC(=O)N1CC[C@H](Nc2cc(=O)[nH]c3ccc(C(c4ccc(Cl)cc4)c4nccs4)cc23)C1 (stereo partly shown) [Compound 45] | > 10 µM
OC(c1ccc(Cl)cc1)(c1ccc2nccc(/C=C/c3ccccc3)c2c1)c1cscn1 (stereo not shown) [Compound 517] | 0.34 µM
O=C(N1CC=C(c2cc(=O)[nH]c3ccc(C(c4ccc(Cl)cc4)c4ccc(Cl)cc4)cc23)CC1)C(F)(F)F [Compound 14] | > 10 µM
O=S(=O)(N1CCC(Nc2ccnc3c(Br)cc(C(c4ccc(Cl)cc4)c4ccc(Cl)cc4)cc23)CC1)C(F)(F)F [Compound 524] | 0.18 µM
CC(=O)NCCCCOc1cc(C(c2ccc(Cl)cc2)c2ccc(Cl)cc2)cc2c(NC3CCN(S(=O)(=O)C(F)(F)F)CC3)ccnc12 [Compound 543, trifluoroacetic acid salt] | > 10 µM

Below: the item to evaluate.
Response field EC50 (Human CB2R (Cannabinoid receptor 2) (Homo sapiens (Human), UniProt P34972)) for item OC(c1ccc(Cl)cc1)(c1ccsc1)c1ccc2nccc(/C=C/c3ccccc3)c2c1 (stereo not shown) [Compound 507] : > 10 µM

Hello, the source for this data is patent US9266835B2, in case you need it.
